Entries and their pEC50
Biological target: mAChR M1 (UniProt P11229)
Test: mAChR M1 cell-based functional assay (calcium mobilization, potentiation of EC20 acetylcholine response)
Details: positive allosteric modulation of EC20 ACh response, mAChR M1 CHO-K1 cells; <5 estimated where no plateau
Output: the number by itself.

Consider the reported pEC50 for these molecules:
{"columns": ["MOLECULE", "pEC50"],
 "data": [
  ["O=C1c2cccnc2CN1Cc1ccc(-c2ccc3ncccc3c2)cc1F [Example B48]", 6.08],
  ["Cn1cc2cc(-c3ccc(CN4Cc5ncncc5C4=O)c(F)c3)ccc2n1 [Example B56]", 6.40]
]}

Lookup: pEC50 / mAChR M1 (UniProt P11229) / Cn1cc(-c2ccc(CN3Cc4ncccc4C3=O)c(F)c2)cn1 [Example B9]
5.55

How about CN1CCc2cc(-c3cc(F)c(CN4Cc5ncccc5C4=O)c(F)c3)ccc21 [Example B103] ?
5.83

How about Cc1cc(-c2ccc(CN3Cc4cccnc4C3=O)c(F)c2)cnc1Cl [Example B63] ?
5.73

How about O=C1c2cccnc2CN1Cc1ccc(-c2ccc3cnccc3c2)cc1F [Example B44] ?
6.04

How about Cc1cc(-c2ccc(CN3Cc4cccnc4C3=O)c(Cl)c2)cnc1Cl [Example B75] ?
5.70

How about O=C1c2cccnc2CN1Cc1ccc(-c2ccc3cn[nH]c3c2)cc1F [Example B40] ?
6.13
